# EXPERIMENTAL_SYSTEM: Streptokinase A (Streptococcus pyogenes serotype M1, UniProt P10520)
# Sequence (P10520 whole entry): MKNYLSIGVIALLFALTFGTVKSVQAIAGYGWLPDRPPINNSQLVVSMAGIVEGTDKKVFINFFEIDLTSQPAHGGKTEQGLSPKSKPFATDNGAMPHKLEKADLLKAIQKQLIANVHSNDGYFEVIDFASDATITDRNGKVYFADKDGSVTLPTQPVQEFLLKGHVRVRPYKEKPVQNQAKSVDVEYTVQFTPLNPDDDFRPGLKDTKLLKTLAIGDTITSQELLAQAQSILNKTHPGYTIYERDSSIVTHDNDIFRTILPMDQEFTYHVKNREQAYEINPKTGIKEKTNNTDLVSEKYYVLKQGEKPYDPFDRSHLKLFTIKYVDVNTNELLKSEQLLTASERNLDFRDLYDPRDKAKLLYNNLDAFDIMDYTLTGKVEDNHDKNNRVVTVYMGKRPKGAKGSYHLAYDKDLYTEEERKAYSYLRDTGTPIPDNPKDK
# MEASUREMENT_NOTES: S. pyogenes streptokinase expression inhibitors, potency, dose response, plasminogen activation absorbance, OD405 (AID 1914);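 note: secreted streptokinase activity via plasminogen activation per viability signal from cell pellet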
# Type: functional, Streptococcus pyogenes M1 GAS
Active and inactive are the calls of the source.
MEASURE_NAME: EC50

# COMPOUND, EC50
records = [
    ("CC(=O)Nc1nc(NC(=O)/C=C/c2ccccc2)n(-c2ccccc2)n1", "> 150 µM (not active)"),
    ("CCN(CC)c1ccc(NC(=O)c2c(C)noc2C)cc1", "> 150 µM (not active)"),
    ("Cc1cccc(OCC(=O)Nc2ccc(C(=O)Nc3ccccc3C(=O)O)cc2)c1C", "> 150 µM (not active)"),
    ("Nc1sc(-c2ccccc2)cc1C(=O)N/N=C/c1ccc(Cl)cc1", "> 150 µM (not active)"),
    ("Cc1oc(-c2ccc(F)cc2)nc1CN(Cc1ccccn1)CC1CCCO1 (centres undefined)", "> 150 µM (not active)"),
    ("CCOc1cccc(/C=N/NC(=O)c2ccc3c(c2)OCCO3)c1O", "1.11 µM (active)"),
    ("O=C(Nc1nnc(C2=COCCO2)o1)c1cccc(F)c1", "> 150 µM (not active)"),
    ("CCn1cc(C(=O)O)c(=O)c2cc(F)c(N3CCN(C(=S)NC(=O)c4cc(OC)cc(OC)c4)CC3)cc21", "> 150 µM (not active)"),
]

# map each compound to its EC50
1. CN(C)c1ccc(/C=C/c2c([N+](=O)[O-])c(=O)n(C)c(=O)n2C)cc1
2. Cc1ccccc1-c1cc(-c2ccccc2O)n[nH]1
3. O=C(c1cc(-c2ccccc2)nc2ccccc12)N1CCN(c2ccccc2O)CC1
4. Nc1ccc(-c2nc3nc(N)nc(N)c3nc2-c2ccc(N)cc2)cc1
5. CCC[C@@H]1C[C@@]1(CCC)[C@@H](NP(=O)(c1ccccc1)c1ccccc1)c1ccc(C(=O)OC)cc1
6. Cc1ccc(N=C(S)Nc2ccc(C(C)C)cc2)cc1S(=O)(=O)N1CCCCCC1
7. Cc1[nH]c(-c2ccc(F)cc2)cc1C(=O)N1CCN(c2cccc(Cl)c2)CC1

1. > 150 µM (not active)
2. 66.2 µM (inconclusive)
3. 61.5 µM (active)
4. > 150 µM (not active)
5. > 150 µM (not active)
6. > 150 µM (not active)
7. > 150 µM (not active)

====

Provide the recorded IC50 for the entries that follow.
# EXPERIMENTAL_SYSTEM: Polyadenylate-binding protein 1 (Homo sapiens, UniProt P11940)
# Sequence (P11940 whole entry): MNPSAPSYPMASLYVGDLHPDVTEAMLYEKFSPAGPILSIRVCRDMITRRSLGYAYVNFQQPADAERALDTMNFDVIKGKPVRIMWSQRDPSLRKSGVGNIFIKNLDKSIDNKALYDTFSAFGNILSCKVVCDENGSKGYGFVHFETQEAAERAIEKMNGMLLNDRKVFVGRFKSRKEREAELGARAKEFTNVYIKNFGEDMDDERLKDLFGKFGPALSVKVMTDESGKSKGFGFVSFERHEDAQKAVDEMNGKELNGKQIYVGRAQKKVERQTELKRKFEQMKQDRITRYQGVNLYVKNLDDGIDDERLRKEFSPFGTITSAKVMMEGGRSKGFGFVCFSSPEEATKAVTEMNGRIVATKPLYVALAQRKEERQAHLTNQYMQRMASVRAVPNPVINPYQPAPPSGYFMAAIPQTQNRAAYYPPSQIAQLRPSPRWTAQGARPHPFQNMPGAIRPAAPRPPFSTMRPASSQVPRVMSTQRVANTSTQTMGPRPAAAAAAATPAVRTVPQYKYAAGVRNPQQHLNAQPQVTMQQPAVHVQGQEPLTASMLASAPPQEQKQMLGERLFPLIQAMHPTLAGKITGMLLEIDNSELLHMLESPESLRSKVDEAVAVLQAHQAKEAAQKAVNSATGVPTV
# MEASUREMENT_NOTES: PABP1 MLLE–PAM2 binding inhibitor potency, dose response, biochemical, fluorescence polarization, FITC-PAM2 peptide (AID 602259)
# Type: functional
# PARTICULARS: read-out: IC50_Mean
Active and inactive are the calls of the source.

Recorded IC50, per entry:
# COMPOUND, VALUE
measured = [
    ("Fc1ccccc1N=C(S)Nc1cccc2cnccc12", "> 66 µM (inactive)"),
    ("Cc1cc2cc(CNC(=O)c3ccc(Br)o3)ccc2n1C", "> 66 µM (inactive)"),
    ("COc1ccc(OC)c(NC(=O)CSC2=NCCS2)c1", "> 66 µM (inactive)"),
]

# map each compound to its IC50
1. O=C(/C=C/c1ccco1)N1CCN(c2ncccn2)CC1
2. O=C(Cc1cccc2ccccc12)NC(NC(=S)Nc1ccccc1Cl)C(Cl)(Cl)Cl (stereo unspecified)
3. O=C(NNC(=S)Nc1ccc(Br)cc1Cl)c1ccncc1
4. CC1(C)CC2=NC(SCC(N)=O)=C(C#N)C3(CCCCC3)C2=C(O)C1

["> 66 µM (inactive)", "> 66 µM (inactive)", "> 66 µM (inactive)", "> 66 µM (inactive)"]
